Target: T1, EsCas13d, nuclease-dead (Eubacterium siraeum, UniProt B0MS50, R295A;H300A;R849A;H854A)
T1 sequence: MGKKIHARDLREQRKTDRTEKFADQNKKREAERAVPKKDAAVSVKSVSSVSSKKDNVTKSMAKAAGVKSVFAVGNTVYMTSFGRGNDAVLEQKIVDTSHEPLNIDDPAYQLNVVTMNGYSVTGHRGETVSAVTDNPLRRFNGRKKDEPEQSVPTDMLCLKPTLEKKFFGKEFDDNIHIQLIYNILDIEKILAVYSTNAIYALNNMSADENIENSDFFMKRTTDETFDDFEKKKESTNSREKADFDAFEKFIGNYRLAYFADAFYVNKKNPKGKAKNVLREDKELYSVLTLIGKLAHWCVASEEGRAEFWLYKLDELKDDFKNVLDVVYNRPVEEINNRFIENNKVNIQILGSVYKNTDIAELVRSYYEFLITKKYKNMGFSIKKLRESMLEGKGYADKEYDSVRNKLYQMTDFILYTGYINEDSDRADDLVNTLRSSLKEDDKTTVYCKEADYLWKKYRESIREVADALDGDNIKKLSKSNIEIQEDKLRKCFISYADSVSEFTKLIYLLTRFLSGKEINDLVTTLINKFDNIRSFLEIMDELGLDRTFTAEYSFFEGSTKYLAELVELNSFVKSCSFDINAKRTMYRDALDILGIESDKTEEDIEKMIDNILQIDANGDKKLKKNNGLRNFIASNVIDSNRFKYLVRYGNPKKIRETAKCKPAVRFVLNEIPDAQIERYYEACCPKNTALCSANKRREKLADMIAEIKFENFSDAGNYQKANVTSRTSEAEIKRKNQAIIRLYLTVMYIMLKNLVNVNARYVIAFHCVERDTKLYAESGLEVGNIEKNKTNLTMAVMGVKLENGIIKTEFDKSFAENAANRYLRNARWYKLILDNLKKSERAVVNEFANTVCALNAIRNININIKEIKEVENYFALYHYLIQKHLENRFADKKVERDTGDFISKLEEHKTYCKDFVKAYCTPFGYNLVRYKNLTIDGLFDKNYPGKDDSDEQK
Experiment: crRNA (strand 1, pre-loaded); Mg2+; 40 mM Tris-HCl pH 7.5, 150 mM NaCl, 6 mM MgCl2, 1 mM DTT, 0.1% Tween-20, 0.2 mg/ml BSA; 25 C; 10 min per concentration, then washed
Conditions: tags: His6-TwinStrep-SUMO cleaved; N-terminal SNAP kept (SNAP-Surface 488); label: 3' end held by stalled T7 RNA polymerase
reported_endpoint: Kd (nM)
Use nM as the unit, but write only the number.

# example entries with known answers
target 1 U11C,G13U (mixed) RNA 1: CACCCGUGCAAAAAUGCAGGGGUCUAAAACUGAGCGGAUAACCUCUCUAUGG RNA 2: GGGAAUGGAUCCACAUCUACGAAUUCGUACCAUAGAGAUGCUAUCCGCUCACCGAGAUCGGAAGAGCACACGU; 60
target 1 C2U,C6G (mixed) RNA 1: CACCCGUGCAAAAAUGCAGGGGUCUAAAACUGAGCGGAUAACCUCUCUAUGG RNA 2: GGGAAUGGAUCCACAUCUACGAAUUCGUACCAUAGAGAGGUUAUCGGCUUACCGAGAUCGGAAGAGCACACGU; 7.9
target 1 insA 3' of 17,insA 3' of 8 (mixed) RNA 1: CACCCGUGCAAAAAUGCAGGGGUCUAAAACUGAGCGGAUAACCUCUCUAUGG RNA 2: GGGAAUGGAUCCACAUCUACGAAUUCGUACCAUAGAAGAGGUUAUACCGCUCACCGAGAUCGGAAGAGCACACGU; 16.1
target 2 MT 5'PFS GGC 3'PFS CAU (mixed) RNA 1: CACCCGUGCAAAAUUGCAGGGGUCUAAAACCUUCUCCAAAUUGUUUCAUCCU RNA 2: GGGAAUGGAUCCACAUCUACGAAUUCGGCAGGAUGAAACAAUUUGGAGAAGCAUAGAUCGGAAGAGCACACGU; 14.4

Incoming: Consider the binder shown here: target 3 insU 3' of 13,insC 3' of 3 (mixed) RNA 1: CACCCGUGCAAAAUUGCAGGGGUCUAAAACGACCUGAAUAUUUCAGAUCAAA RNA 2: GGGAAUGGAUCCACAUCUACGAAUUCGUUUUUGAUCUGAUAAUAUUCAGGCUCUGCAGAUCGGAAGAGCACACGU What is its recorded Kd?
Outgoing: 86.5

Incoming: Consider the binder shown here: target 2 MT 5'PFS UGG 3'PFS UUC (mixed) RNA 1: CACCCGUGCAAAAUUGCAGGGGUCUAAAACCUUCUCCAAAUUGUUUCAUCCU RNA 2: GGGAAUGGAUCCACAUCUACGAAUUCUGGAGGAUGAAACAAUUUGGAGAAGUUCAGAUCGGAAGAGCACACGU What is its recorded Kd?
Outgoing: 19.2

Incoming: Consider the binder shown here: target 3 insC 3' of 11,insU 3' of 3 (mixed) RNA 1: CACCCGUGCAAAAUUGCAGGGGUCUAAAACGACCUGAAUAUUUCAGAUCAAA RNA 2: GGGAAUGGAUCCACAUCUACGAAUUCGUUUUUGAUCUGAAACUAUUCAGGUUCUGCAGAUCGGAAGAGCACACGU What is its recorded Kd?
Outgoing: 74.5

Incoming: Consider the binder shown here: target 1 C2A,A14C (mixed) RNA 1: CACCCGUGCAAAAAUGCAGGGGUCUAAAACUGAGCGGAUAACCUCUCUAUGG RNA 2: GGGAAUGGAUCCACAUCUACGAAUUCGUACCAUAGAGCGGUUAUCCGCUAACCGAGAUCGGAAGAGCACACGU What is its recorded Kd?
Outgoing: 48.7

This collection of values is drawn from paper PMC10786891.
